# Tested on: HCT-116
# protocol.text: NCI tumour cell line growth inhibition, 48 h
Activity calls are given as the source filed them. Rule as the data show it: active = GI50 up to about 1.1 µM and inactive = higher.
measured.endpoint: GI50

{"columns": ["molecule", "GI50"],
 "data": [
  ["COC(=O)C1C(O)C(C)C(O)C(C)C=C(C)C2=C3C(=C(C)C(=O)c4c(O)c(c(C)c(OC(C)=O)c43)NC(=O)C(C)=C/C=C\\C(C)C(O)C(C)C1O)OCO2 (stereo not given)", "31.8 µM (inactive)"]
]}

I have 3 molecules here; please give me GI50 for each one.
1. Cc1nn(C(=O)Cc2ccccc2)c2c1C(c1ccc(O)cc1)SC(=N)N2 (stereo not given)
2. Cc1cccc(NC(N)=S)c1
3. COc1ccc(-c2nc(N)c(C#N)c3c2CCSc2ccc(C)cc2-3)cc1OC

Response given:
1. > 100 µM (inactive)
2. > 100 µM (inactive)
3. 10.8 µM (inactive)

I have 6 molecules here; please give me GI50 for each one.
1. Cc1ccccc1[P+](C)(c1ccccc1C)c1ccccc1C
2. C=C1C(=O)OC2CC1C(OC(=O)/C=C/c1ccccc1)C/C(C)=C/CC/C(C)=C/CCC2(C)O (stereo not given)
3. O=C(N/N=C/c1ccc([N+](=O)[O-])cc1)c1cccc2nc3ccccc3nc12
4. COC(=O)CCCC(=O)NC1=C(Nc2ccccc2)C(=O)c2ccccc2C1=O
5. COC(=O)/C(=N\Nc1nc(S)nn1N)C(C#N)c1ccccc1 (stereo not given)
6. O=C(O)c1ccccc1[Se][Se]c1ccccc1C(=O)O

Response given:
1: 6.79 µM (inactive); 2: 1.24 µM (inactive); 3: > 100 µM (inactive); 4: 16.6 µM (inactive); 5: > 100 µM (inactive); 6: 37.4 µM (inactive)

----------
Field: GI50. Provide a value for each of the molecules that follow.
# Test system: NCI-H522
# protocol.text: NCI tumour cell line growth inhibition, 48 h
Activity calls are given as the source filed them. Cut-off read from the data, not from the text of the source: active = GI50 up to about 1.1 µM and inactive = higher.

{"columns": ["molecule", "measured.on", "reported.result"],
 "data": [
  ["COc1ccc(/N=N/c2ccc3oc(=O)c(C(=O)Nc4ccc(Cl)cc4)cc3c2)cc1", "NCI-H522", "> 10 µM (inactive)"],
  ["CC(=O)NNc1ncc(C(=O)/C=C/c2ccccc2C)s1", "NCI-H522", "> 100 µM (inactive)"],
  ["CC(=O)OC[C@@H](OC(C)=O)[C@H](OC(C)=O)[C@@H]1OC(C)(C)O[C@@H]1C1SCCCS1", "NCI-H522", "> 100 µM (inactive)"],
  ["O=S1(=O)N=C(NCc2c[nH]c3ccccc23)N(c2ccccc2)c2ccncc21", "NCI-H522", "25.1 µM (inactive)"],
  ["N#C[BH2-][n+]1cn(C2CC(OP(=O)(O)OCC3OC(n4cnc5c(N)ncnc54)CC3O)C(CO)O2)c2nc(N)[nH]c(=O)c21 (centres undefined)", "NCI-H522", "> 100 µM (inactive)"],
  ["O=S(=O)(O)c1ccc2c(/N=N\\c3ccc(F)cc3)c(O)c(S(=O)(=O)O)cc2c1", "NCI-H522", "> 100 µM (inactive)"]
]}

I have 3 molecules here; please give me GI50 for each one.
1. BrCC[N+]12CC[N+](CCBr)(CC1)C2
2. O=C1C=CC2(C=C1)C[C@H](NC(=O)OCc1ccccc1)C(=O)O2
3. COc1cc2c(c(O)c1O)C(=O)C1CCC(=O)N1C2c1cccc2ccccc12 (centres undefined)

Response given:
1. > 100 µM (inactive)
2. 3.3 µM (inactive)
3. > 50 µM (inactive)

----------
# System: LOX IMVI
# protocol.text: NCI tumour cell line growth inhibition, 48 h
Activity calls are given as the source filed them. Cut-off read from the data, not from the text of the source: active = GI50 up to about 1.1 µM and inactive = higher. Numbered stars: 1 amine (or outer) side, 2 acyl side, 3 side chain; on linkers, the order of the positions; unused ones are H or OH. Bridge positions count the residues as written; N and C are the ends. Square brackets hold non-standard residues; d marks the D form. Peptide text beside a SMILES is read from it. I, II: the chains in the order shown. Actinocin(9to1) = Cc1c2oc3c(C)ccc(C(=O)[*:1])c3nc-2c(C(=O)[*:2])c(N)c1=O; X48 = O=C1CC(C(=O)[*:2])N([*:1])C1; NMeV = CN[CH](C(=O)O)C(C)C; Sar = CNCC(=O)O
// classify into active, inactive

{"columns": ["compound", "label.value"],
 "data": [
  ["N#Cc1c(N2CCC(O)C2)c2ccccc2n2c1nc1ccccc12 (stereo not given)", "inactive"],
  ["COc1ccccc1NCc1nnc(CCCCCCCCc2nnc(CNc3ccccc3OC)o2)o1", "inactive"],
  ["Cc1c2oc3c(C)ccc(C(=O)NC4C(=O)NC(C(C)C)C(=O)N5CC(=O)CC5C(=O)N(C)CC(=O)N(C)C(C(C)C)C(=O)OC4C)c3nc-2c(C(=O)NC2C(=O)NC(C(C)C)C(=O)N3CC(=O)CC3C(=O)N(C)CC(=O)N(C)C(C(C)C)C(=O)OC2C)c(N)c1=O (stereo not given) (I: TV[X48][Sar][NMeV] / II: TV[X48][Sar][NMeV]; ester I:1-I:C, II:1-II:C; linker I:N-II:N via Actinocin(9to1); configuration not given here)", "active"],
  ["CNC(=S)/N=c1/sc(NC)nc2sc3c(c12)CCCC3", "inactive"],
  ["Cn1c(=O)n(CC(Br)CBr)c(=O)n(CC(Br)CBr)c1=O (stereo not given)", "inactive"]
]}

Challenge: # outcome recorded in this test, key = CC(C)(C)OC(=O)Nc1cc(-c2ccccc2)co1
Response given: inactive

Challenge: # outcome recorded in this test, key = COc1ccc(C(=O)c2sc(Nc3ccc(Cl)cc3)nc2N)cc1
Response given: inactive

Challenge: # outcome recorded in this test, key = CC1(C)OC[C@@H](C[C@H](O)COCc2ccccc2)O1
Response given: inactive

Challenge: # outcome recorded in this test, key = Cc1c(/C=N/NC(=S)Nc2cccc(Cl)c2)c(=O)n(-c2ccccc2)n1C
Response given: inactive

Challenge: # outcome recorded in this test, key = CN(C)c1ccc(/C=C2\N=C(NN)NC2=O)cc1
Response given: inactive

----------
# System: HOP-18
# protocol.text: NCI tumour cell line growth inhibition, 48 h
Active and inactive are the calls of the source. No stated cut-off is given here; in the data, active = GI50 up to about 1.1 µM and inactive = higher.
Field: GI50. Provide a value for each of the molecules that follow.

{"columns": ["molecule", "measured.on", "reported.result"],
 "data": [
  ["C#C[C@@]1(O)CCCC2=CC(=O)C[C@]21C", "HOP-18", "> 100 µM (inactive)"],
  ["Cc1ccc(NC(=O)C(=O)C(C#N)c2ccccc2C)cc1C (configuration not stated)", "HOP-18", "> 100 µM (inactive)"]
]}

I have 6 molecules here; please give me GI50 for each one.
1. CCc1cccc(C)c1NC(=O)CCc1nnc(SC)o1
2. CC(C)/C=C1\CCC(CN2CCCC2)C1=O (configuration not stated)
3. Cc1cc2c(CC(=O)O)n[nH]c2c(C(=O)O)c1C
4. Cn1c2cc(O)cc(O)c2c(=O)c2c([N+](=O)[O-])cccc21
5. CCOc1cn(C2OC(CO)C(O)C2O)c(=O)[nH]c1=O (configuration not stated)
6. Cc1ccc(C)c(NC(=O)CC/C(=N\NC(=O)C(=O)NN)C(C)C(=O)c2ccc(O)cc2)c1 (configuration not stated)

Response given:
1. > 100 µM (inactive)
2. 7.73 µM (inactive)
3. > 100 µM (inactive)
4. > 100 µM (inactive)
5. > 100 µM (inactive)
6. > 100 µM (inactive)

I have 4 molecules here; please give me GI50 for each one.
1. CCS/C(=N\c1ccccc1)SC
2. O=c1c2ccccc2oc2nccnc12
3. CCOC(=O)CN(Cn1cncn1)Cn1cncn1
4. O=C1c2ccccc2C(=O)c2c(NCCNCCO)ccc(O)c21

Response given:
["> 100 µM (inactive)", "> 100 µM (inactive)", "32.8 µM (inactive)", "9.27 µM (inactive)"]

----------
# System: SW-620
# protocol.text: NCI tumour cell line growth inhibition, 48 h
Activity calls are given as the source filed them. No stated cut-off is given here; in the data, active = GI50 up to about 1.1 µM and inactive = higher.
measured.endpoint: GI50

I have 3 compounds here; please give me GI50 for each one.
1. C[N+](C)(C)CC1CCCCC1O (stereo not drawn)
2. COc1ccc(C(=C2C=CC=C2)c2ccc(OC)cc2)cc1
3. O=C(NN=C1NCCCN1)c1ccco1

Response given:
1: > 100 µM (inactive); 2: 32.6 µM (inactive); 3: > 100 µM (inactive)

I have 5 compounds here; please give me GI50 for each one.
1. COc1cnc2oc3ccc(O)cc3c2c1-c1ccccc1
2. Nc1nc(Cl)c(N)c(NCC2(CO)CC(Cc3ccccc3)C2)n1 (stereo not drawn)
3. O=C(C#Cc1cnc(O)nc1O)c1ccccc1
4. COc1ccc(C(c2c(O)c3ccccc3n(-c3ccccc3)c2=O)c2c(O)c3ccccc3n(-c3ccccc3)c2=O)cc1
5. COc1ccc(/C=C2\CCC(CCN(C)C)(C3=CCCC3)C2=O)cc1Br (stereo not drawn)

Response given:
1: > 100 µM (inactive); 2: > 72.8 µM (inactive); 3: 6.76 µM (inactive); 4: > 100 µM (inactive); 5: 7.66 µM (inactive)

I have 8 compounds here; please give me GI50 for each one.
1. COC(=O)N/N=C/c1oc(-c2ccccc2)c(-c2ccccc2)c1[N+](=O)[O-]
2. Cc1nn(C(=O)Cc2ccccc2)c2c1C(c1ccc(O)cc1)SC(=N)N2 (stereo not drawn)
3. O=C(O)C(Br)Cc1ccc2c(c1)OCO2 (stereo not drawn)
4. CCOC(=O)NC(=O)c1cn(CCCOC(=O)CCCCCCCCCCC(=O)OCCCn2cc(C(=O)NC(=O)OCC)c(=O)n(C)c2=O)c(=O)n(C)c1=O
5. O=C1C[S+]([O-])C23c4cc5ccccc5n4CCC2CCCN13 (stereo not drawn)
6. COC(=O)CCCC(=O)NC1=C(Nc2ccccc2)C(=O)c2ccccc2C1=O
7. Cc1[nH]c(=O)[nH]c(=S)c1C(=O)NC(C)(CO)CO
8. COC(=O)/N=[N+](\[O-])C(c1ccccc1)c1ccccc1

Response given:
> 100 µM (inactive)
> 100 µM (inactive)
> 100 µM (inactive)
> 100 µM (inactive)
> 100 µM (inactive)
25.2 µM (inactive)
> 100 µM (inactive)
> 100 µM (inactive)
